Measured koff of individual entries
Molecular target: T1, rat α-CGRP (1-37) (rat, C-terminal amide; N-terminal biotin when captured on the SA chip)
T1 construct: also called rat α (1-37); α-rat
T1 peptide: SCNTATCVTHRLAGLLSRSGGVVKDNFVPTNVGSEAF
Assay: Biacore, 37°C, Fab over CGRP on SA chip
quantity.kind: koff (s⁻¹)

* G1 variant M24 Fab (Fab, V domains shown, Fab; constant domains as m1) VH: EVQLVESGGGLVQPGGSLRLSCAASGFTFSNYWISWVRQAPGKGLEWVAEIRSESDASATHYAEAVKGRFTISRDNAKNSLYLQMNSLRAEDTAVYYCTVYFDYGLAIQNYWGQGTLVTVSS VL: EIVLTQSPATLSLSPGERATLSCKASKLVTTYVSWYQQKPGQAPRLLIYGASNRYLGIPARFSGSGSGTDFTLTISSLEPEDFAVYYCSQSYNYPYTFGQGTKLEIK | 0.00104
* G1 variant M78 Fab (Fab, V domains shown, Fab; constant domains as m1) VH: EVQLVESGGGLVQPGGSLRLSCAASGFTFSNYWISWVRQAPGKGLEWVAEIRSKSDNTATHYAEAVKGRFTISRDNAKNSLYLQMNSLRAEDTAVYYCTVYFDYGLAIQNYWGQGTLVTVSS VL: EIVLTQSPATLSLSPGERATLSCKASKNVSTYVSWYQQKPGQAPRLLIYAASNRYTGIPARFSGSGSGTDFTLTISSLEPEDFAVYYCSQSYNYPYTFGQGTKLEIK | 0.167
* G1 variant M18 Fab (Fab, V domains shown, Fab; constant domains as m1) VH: EVQLVESGGGLVQPGGSLRLSCAASGFTFSNYWISWVRQAPGKGLEWVAEIRSESDASATHYAEAVKGRFTISRDNAKNSLYLQMNSLRAEDTAVYYCVGYFDYGLAIQNYWGQGTLVTVSS VL: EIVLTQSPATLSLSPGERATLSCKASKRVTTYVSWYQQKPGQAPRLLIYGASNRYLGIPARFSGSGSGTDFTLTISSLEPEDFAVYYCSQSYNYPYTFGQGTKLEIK | 0.00122
